Here the recorded self-cleavage is given for each entry.
B1: HDV Ribozyme (parent)
chain: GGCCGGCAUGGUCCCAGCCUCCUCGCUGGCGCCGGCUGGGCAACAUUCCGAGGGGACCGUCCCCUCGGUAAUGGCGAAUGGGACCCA

# Variants of: B1
# METHOD: self-cleavage, relative activity (ratio to wild type); higher = more cleavage; co-transcriptional
Lab note: jot down the number only; don't add units.

// solved cases for self-cleavage follow
1. U60A G73U : 0.475
2. C14G C33A : 0.151
3. C32U G38C : 0.233

Query: Indicate the recorded self-cleavage value for this variant: C18U G29A
Result: 1.06

Query: Give the reported self-cleavage for this variant. G38C G39C
Result: 0.0426
